Reference source: paper PMC8997165

- System: NCCIT-R cells
- METHOD_DESCRIPTION: XTT cell viability assay, NCCIT-R (cisplatin-resistant)
- Assay type: cell-based, human
- RUN_CONDITIONS: 48 h
Some compounds, each annotated with its measured IC50.
PARAMETER: IC50 (nM)

> print(dat)
                                   compound  censoring.operator  reading
1  CN(C)C/C=C/C(=O)Nc1ccc(C(=O)Nc2cccc(Nc3ncc(Cl)c(-c4c[nH]c5ccccc45)n3)c2)cc1 [THZ1]                   =      145
2  COC[C@@H](C)N[C@H]1CC[C@H](Nc2cc(-c3cccc(NCC4(C#N)CCOCC4)n3)c(Cl)cn2)CC1 [NVP2]                   =     17.1
3  C=CC(=O)Nc1ccc(C(=O)Nc2[nH]nc3c2CN(C(=O)N[C@H](CN(C)C)c2ccccc2)C3(C)C)cc1 [YKL-5-124]                   >     1000
